# procedure-text: soluble on expression in E. coli; label from the status in PepcDB or PDB records
property-name: soluble on expression in E. coli

Entry "MGSDKIHHHHHHMTLKITKSDEVIEVKNLCVTIYSQPGLGKTSLAFTASRPLLLDFDKGAHRAVDRKDVVQVEDWRDVAGISAGDLAAYDTIVIDTVGKALDTLSADIIRANSKLSYGGALNQQGWGQLGVRFSAFLKLLRSFGKDVVLISHMDEKADGDAIKERLKISGGSKDLVLTDSDVIARISIYNRERHLIFSPTETSFGKDPANIGAMPIPEASAETYATCLSDIITQIKEGMNALSEEQVQRKAEIDWFATKLPEMTSAEEINGVLGRAKKAGKDIQKMVVARAKELGFDFDPEAREYVDPSAALADELDDEIPEFDDADEPESPAMAAE" — recorded soluble on expression in E. coli = not soluble

Entry "MGSDKIHHHHHHMGFVKPFSKINGSIIMVILGLLASACGQSGSETGGLVDANEPVSPQPNLGEQQGVLEQNLPVPNNQQTDYFRVILYGNSHVSGLPSLIQLLINTGVPQVRVEVKNVGGGFLDESYYNDAYQARLTATPWTHAIFQGQKYSQSGTSIYPTTAAQKWLDKAKSLGITPILFPEHPQDGKLEEGEYVYQLHQGITSMQSSCLAPIPLVWERVIQLLPDVHLHAPDGNHASSLGNFLTALVFYEVITGRSADLLPYLSNIAISEQIQSIFGQVVSEVLADKPACPTF" — recorded soluble on expression in E. coli = not soluble
